The entries below come with measured Logarithmic value of the number of bacterial cells per one g of feces: E. coli values attached.
- Tested on: Escherichia coli
- measurementDescription: Effect on the intestinal bacterial colonies: E. coli count in mouse feces
- Assay type: in vivo
- experimentalSetup: female ICR mice, oral 500 mg/kg/day for two days, one day after administration; before administration 6.4
- Method: Each of the cephalosporin derivatives of the invention prepared in Examples 1 to 4 was orally administered to mice (one group consisting of five female ICR mice of 6-week-old) for two consecutive days at a dose of 500 mg/kg/day. Before and one day after the administration, feces of each mouse was collected and diluted with an anaerobic diluent (phosphoric buffer solution) of 100 times by volume and the diluted feces was ground. […]
observedProperty: Logarithmic value of the number of bacterial cells per one g of feces: E. coli

>  <compound>
COC(=O)[C@H](CCSC)NC(=O)C1=C(COC(C)=O)CSC2C(NC(=O)Cc3cccs3)C(=O)N12 (stereo partly shown) [Example 2]

>  <value>
6.4 Logarithmic value of the numbe

$$$$
>  <compound>
COC(=O)C[C@H](NC(=O)C1=C(COC(C)=O)CSC2C(NC(=O)Cc3cccs3)C(=O)N12)C(=O)OC (stereo partly shown) [Example 1]

>  <value>
6.3 Logarithmic value of the numbe

$$$$
>  <compound>
CCOC(=O)C(Cc1ccc(O)cc1)NC(=O)C1=C(COC(C)=O)CSC2C(NC(=O)Cc3cccs3)C(=O)N12 (stereo not shown) [Example 3]

>  <value>
6.5 Logarithmic value of the numbe

$$$$
>  <compound>
COC(=O)CCC(NC(=O)C1=C(COC(C)=O)CSC2C(NC(=O)Cc3cccs3)C(=O)N12)C(=O)OC (stereo not shown) [Example 4]

>  <value>
6.0 Logarithmic value of the numbe

$$$$

---

- Test system: Lactobacillus bifidus
- measurementDescription: Effect on the intestinal bacterial colonies: L. bifidus count in mouse feces
- Assay type: in vivo
- experimentalSetup: in vivo, po, 500 mg/kg/day
observedProperty: Logarithmic value of the number of bacterial cells per one g of feces: L. bifidus

>  <compound>
CCOC(=O)C(Cc1ccc(O)cc1)NC(=O)C1=C(COC(C)=O)CSC2C(NC(=O)Cc3cccs3)C(=O)N12 (stereo not shown)

>  <value>
8.2 Logarithmic value of the numbe

$$$$
>  <compound>
COC(=O)C[C@H](NC(=O)C1=C(COC(C)=O)CSC2C(NC(=O)Cc3cccs3)C(=O)N12)C(=O)OC (stereo partly shown)

>  <value>
8.6 Logarithmic value of the numbe

$$$$
>  <compound>
COC(=O)CCC(NC(=O)C1=C(COC(C)=O)CSC2C(NC(=O)Cc3cccs3)C(=O)N12)C(=O)OC (stereo not shown)

>  <value>
8.9 Logarithmic value of the numbe

$$$$
>  <compound>
COC(=O)[C@H](CCSC)NC(=O)C1=C(COC(C)=O)CSC2C(NC(=O)Cc3cccs3)C(=O)N12 (stereo partly shown)

>  <value>
8.3 Logarithmic value of the numbe

$$$$

---

The entries below come with measured Logarithmic value of the number of bacterial cells per one g of feces: L. acidophilus values attached.
- Test system: Lactobacillus acidophilus
- measurementDescription: Effect on the intestinal bacterial colonies: L. acidophilus count in mouse feces
- Assay type: in vivo
- experimentalSetup: in vivo, po, 500 mg/kg/day
observedProperty: Logarithmic value of the number of bacterial cells per one g of feces: L. acidophilus

>  <compound>
COC(=O)C[C@H](NC(=O)C1=C(COC(C)=O)CSC2C(NC(=O)Cc3cccs3)C(=O)N12)C(=O)OC (stereo partly shown)

>  <targetUnderTest>
Lactobacillus acidophilus

>  <value>
9.0 Logarithmic value of the numbe

$$$$
>  <compound>
CCOC(=O)C(Cc1ccc(O)cc1)NC(=O)C1=C(COC(C)=O)CSC2C(NC(=O)Cc3cccs3)C(=O)N12 (stereo not shown)

>  <targetUnderTest>
Lactobacillus acidophilus

>  <value>
8.9 Logarithmic value of the numbe

$$$$
>  <compound>
COC(=O)[C@H](CCSC)NC(=O)C1=C(COC(C)=O)CSC2C(NC(=O)Cc3cccs3)C(=O)N12 (stereo partly shown)

>  <targetUnderTest>
Lactobacillus acidophilus

>  <value>
8.9 Logarithmic value of the numbe

$$$$
>  <compound>
COC(=O)CCC(NC(=O)C1=C(COC(C)=O)CSC2C(NC(=O)Cc3cccs3)C(=O)N12)C(=O)OC (stereo not shown)

>  <targetUnderTest>
Lactobacillus acidophilus

>  <value>
9.4 Logarithmic value of the numbe

$$$$

Cited source: patent US4446137A
